This listing pairs sequences with measured Minimum inhibitory concentration MHB + 0.9% NaCl.
system: E. coli BW25113; assay: MIC broth microdilution; format: cell-based, Escherichia coli; details: Mueller-Hinton broth + 0.9% NaCl; 24 h 37 °C; median of ≥3 experiments
Ends that are not written are not given here.
Field format: number, assumed µM, no unit text.

[
  {
    "SEQUENCE STRING": "RPRPPKPRPPHRPRPRPRPWFPPRFP [Rum-1[4-29]]",
    "SYSTEM": "E. coli BW25113",
    "ENDPOINT UNIT": "µM",
    "OBS VALUE": 16
  }
]

Query: Minimum inhibitory concentration MHB + 0.9% NaCl; subject: RPPHRPRPRPRPWFPPRFP [Rum-1[11-29]]
64

Record: RARRPRPPKPRPPHRPRPRPRP [Rum-1[1-22]]
256

Record: KPRPPHRPRPRPRPWFPPRFP [Rum-1[9-29]]
32
